Data provenance: paper PMC5674511

# TARGET SYSTEM: BtGH84 (Bacteroides thetaiotaomicron, UniProt Q89ZI2, C441S/C675S/Y571C)
# Construct: recombinant purified enzyme
# TEST DETAILS: binding constant; method not stated in main text
# MEASUREMENT PARAMETERS: read-out: BtGH84_TM / None
READOUT LABEL: pKd
The scale used: pKd is minus the common logarithm of the concentration in molar units.

Q. Given CCNC1=N[C@@H]2[C@@H](O)[C@H](O)[C@@H](CO)O[C@@H]2S1 [compound 2, thiamet-G] , state its recorded pKd.
A. 7.28

====

# TARGET SYSTEM: BtGH84 (Bacteroides thetaiotaomicron)
# Construct: recombinant purified enzyme
# Sequence (Q89ZI2 22-737): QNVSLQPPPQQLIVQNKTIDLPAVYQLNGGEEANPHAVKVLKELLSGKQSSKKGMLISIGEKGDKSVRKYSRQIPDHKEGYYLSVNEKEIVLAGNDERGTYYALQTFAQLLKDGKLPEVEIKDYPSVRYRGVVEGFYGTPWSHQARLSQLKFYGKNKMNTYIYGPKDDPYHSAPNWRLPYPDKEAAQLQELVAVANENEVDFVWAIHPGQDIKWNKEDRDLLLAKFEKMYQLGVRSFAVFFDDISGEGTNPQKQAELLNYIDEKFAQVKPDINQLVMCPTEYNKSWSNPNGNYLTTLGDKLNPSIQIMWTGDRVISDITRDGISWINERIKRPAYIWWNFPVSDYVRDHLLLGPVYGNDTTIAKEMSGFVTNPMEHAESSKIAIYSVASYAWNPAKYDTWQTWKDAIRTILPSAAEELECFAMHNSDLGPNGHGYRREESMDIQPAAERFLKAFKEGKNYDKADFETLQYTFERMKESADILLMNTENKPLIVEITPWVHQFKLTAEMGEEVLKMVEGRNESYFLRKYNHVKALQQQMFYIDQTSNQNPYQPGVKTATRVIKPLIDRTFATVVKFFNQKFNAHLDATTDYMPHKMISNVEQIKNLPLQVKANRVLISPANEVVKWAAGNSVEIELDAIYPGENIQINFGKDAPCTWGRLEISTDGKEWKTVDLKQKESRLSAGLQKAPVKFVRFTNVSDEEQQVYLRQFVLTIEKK
# TEST DETAILS: binding constant; method not stated in main text
# MEASUREMENT PARAMETERS: read-out: BtGH84 / None
READOUT LABEL: Kd (nM)
State the answer as a number, implicitly in nM.

Q. Given "CCNC1=N[C@@H]2[C@@H](O)[C@H](O)[C@@H](CO)O[C@@H]2S1" , state its recorded Kd.
A. 50
